test: Drug repurposing screens with cells derived from glioblastoma tumor samples (AID 1345199); settings: GBM patient neurospheres viability, ATP luminescence, 48 h; at 45.9 µM (top of the series); tumour line D; note: % is set by controls: 0 for no effect and ±100 for the full control effect; nearly all actives have a fitted effect of over 40% in size
Records with an inconclusive call do not appear.
The following molecules are listed with their measured activity, negative = cell killing values.
measuredProperty: activity, negative = cell killing (%)

COc1cc(C(=S)N2CCOCC2)cc(OC)c1OC :: -20
CCN(CC)C(=O)/C(C#N)=C/c1cc(O)c(O)c([N+](=O)[O-])c1 :: 4.73
CCCCC(=O)O[C@]1(C(=O)CO)CC[C@H]2[C@@H]3CCC4=CC(=O)CC[C@]4(C)[C@H]3[C@@H](O)C[C@@]21C :: -13.5
CCOC(=O)c1cccc(N)c1 :: 2.11
Nc1cc(Cl)c(NC2=NCCN2)c(Cl)c1 :: -1.45
O=C1CCC(c2ccc(-n3ccnc3)cc2)=NN1 :: -6.36
COc1ccc(C2C(=O)c3ccccc3C2=O)cc1 :: -14.2
C=CCc1ccc(O)c(OC)c1 :: 1.72
CCOc1ccc(NC(=O)CC(C)O)cc1 (configuration not stated) :: -16.9
CC(=O)OCC(=O)[C@@]1(O)[C@H](C)C[C@H]2[C@@H]3CCC4=CC(=O)C=C[C@]4(C)[C@@]3(F)[C@@H](O)C[C@@]21C :: -14.4
C[C@]12C=CC(=O)C=C1CC[C@@H]1[C@@H]2[C@@H](O)C[C@@]2(C)[C@H]1CC[C@]2(O)C(=O)CO :: -11.3
c1ccc(CNCCNCc2ccccc2)cc1 :: -12.2
O=C1OC(c2ccc(O)cc2)(c2ccc(O)cc2)c2ccccc21 :: -16.2
C[C@H]1C[C@H]2[C@@H]3CCC4=CC(=O)C=C[C@]4(C)[C@@]3(Cl)[C@@H](O)C[C@]2(C)[C@@]1(O)C(=O)CO :: -11.6
CCCCCCCCCCCCCCCCOP(=O)([O-])OCC[N+](C)(C)C :: -0.719
COC(=O)[C@H]1[C@H]2C[C@H]3c4[nH]c5ccccc5c4CCN3C[C@H]2CC[C@@H]1O :: -13.5
CC(=O)OCC(=O)[C@@]1(O)CC[C@H]2[C@@H]3CCC4=CC(=O)C=C[C@]4(C)[C@H]3[C@@H](O)C[C@@]21C :: -10.4
CCCCCC=CCC=CCCCCCCCC(=O)OCC :: -29.1
CCN1CCN(c2cc3c(cc2F)c(=O)c(C(=O)O)cn3C2CC2)CC1 :: -1.9
CN=C(NC#N)Nc1ccc(C2=NNC(=O)CC2C)cc1 (configuration not stated) :: 17.5
C#C[C@]1(O)CC[C@H]2[C@@H]3CCC4=CC(=O)CC[C@@H]4[C@H]3CC[C@@]21C :: 3.81
Cc1onc(-c2c(Cl)cccc2Cl)c1C(=O)N[C@@H]1C(=O)N2[C@@H]1SC(C)(C)[C@@H]2C(=O)O :: -12.2
CC(Cc1ccccc1)(NC(=O)CN)c1ccccc1 (configuration not stated) :: 3.89
COc1cc(/C=C/C(=O)O[C@H]2CC[C@]34C[C@]35CC[C@]3(C)[C@@H]([C@H](C)CCC=C(C)C)CC[C@@]3(C)[C@@H]5CC[C@H]4C2(C)C)ccc1O :: -21.3
Cc1cc(=O)n(-c2ccccc2)n1C :: 0.358
CCC(=O)c1c(O)cc(O)cc1O :: -16.2
CCOC(=O)OC(C)OC1=C(C(=O)Nc2ccccn2)N(C)S(=O)(=O)c2ccccc21 (configuration not stated) :: -1.93
CC(C)(Oc1ccc(Cl)cc1)C(=O)O :: 2.87
OC(CCN1CCCCC1)(c1ccccc1)c1ccccc1 :: -5.27
NC(CS)C(=O)O (configuration not stated) :: -0.348
Cc1cccn2c(=O)c(-c3nnn[nH]3)cnc12 :: -11.1
C[C@H](CCC(=O)O)[C@H]1CC[C@H]2[C@@H]3C(=O)C[C@@H]4CC(=O)CC[C@]4(C)[C@H]3CC(=O)[C@]12C :: -14.6

----------
test system: PA-1; assay: Primary qHTS to identify gynecologic anti-cancer compounds using libraries of approved drugs and bioactive compounds (AID 1345084); details: Gynecologic cancer cell panel viability, ATPlite luminescence, 48 h; series mostly up to 57.5 µM; note: nearly all actives have a fitted effect of over 55% in size
Results filed as inconclusive are left out. Calls of active or inactive are those of the source. Calls follow the shape of the dose curve; as a rule, active = well fitted cell-killing curve with a large enough effect; inconclusive = small, poorly fitted or top-dose-only effect, or effect the other way; inactive = flat fitted curve, though single readings scatter.
measuredProperty: outcome

NC(CO)(CO)CO :: inactive
CCN1CCC[C@H]1CNC(=O)c1c(OC)ccc(Br)c1OC :: inactive
NC(=O)C(=O)N/N=C/c1ccc([N+](=O)[O-])o1 :: inactive

----------
test system: C33A; test: Primary qHTS to identify gynecologic anti-cancer compounds using libraries of approved drugs and bioactive compounds (AID 1345084); conditions: Gynecologic cancer cell panel viability, ATPlite luminescence, 48 h; series mostly up to 57.5 µM; note: nearly all actives have a fitted effect of over 55% in size
Results filed as inconclusive are left out. Activity calls are given as the source filed them. Calls follow the shape of the dose curve; as a rule, active = well fitted cell-killing curve with a large enough effect; inconclusive = small, poorly fitted or top-dose-only effect, or effect the other way; inactive = flat fitted curve, though single readings scatter.
Possible outcomes: TRUE for active, FALSE for inactive

N[C@H](Cc1c[nH]c2ccccc12)C(=O)O :: FALSE
Oc1ccc(O)cc1 :: FALSE
CC(=O)OCC(=O)[C@@]1(O)CC[C@H]2[C@@H]3CCC4=CC(=O)C=C[C@]4(C)[C@H]3[C@@H](O)C[C@@]21C :: FALSE
C=C(CC)C(=O)c1ccc(OCC(=O)O)c(Cl)c1Cl :: FALSE
CC(C)(C)NC(=O)[C@@H]1CN(Cc2cccnc2)CCN1C[C@@H](O)C[C@@H](Cc1ccccc1)C(=O)N[C@H]1c2ccccc2C[C@H]1O :: FALSE
COc1cc2c(cc1OC)C(C(C(=O)N(CCc1ccc(OC)c(OC)c1OC)CCc1ccc(OC)c(OC)c1OC)c1ccccc1)=NCC2 (centres undefined) :: FALSE
Nc1ccc(C(=O)O)cc1 :: FALSE
CN(C)CC/C=C1\c2ccccc2Sc2ccc(Cl)cc21 :: FALSE
Cc1nc2n(c(=O)c1CCN1CCC(c3noc4cc(F)ccc34)CC1)CCC[C@H]2O :: FALSE
O=C(Nc1ccc(Cl)c(Cl)c1)C1CC1 :: FALSE
CC(=O)c1ccc2c(c1)N(CCCN1CCC(CCO)CC1)c1ccccc1S2 :: FALSE
c1ccc(-c2ccc(C(c3ccccc3)n3ccnc3)cc2)cc1 (centres undefined) :: FALSE
NCCc1ccn[nH]1 :: FALSE
COc1cccc2c1C(=O)c1c(O)c3c(c(O)c1C2=O)C[C@@](O)(C(=O)CO)C[C@@H]3O[C@H]1C[C@H](N)[C@H](O)[C@H](C)O1 :: TRUE
CC(C)COC(=O)c1ccc(N)cc1 :: FALSE
COC(=O)[C@@H]1CC2=CC(=O)CC[C@]2(C)[C@@]23O[C@@H]2C[C@@]2(C)[C@@H](CC[C@@]24CCC(=O)O4)[C@H]13 :: FALSE
Oc1c(Cl)cc(Cl)cc1Sc1cc(Cl)cc(Cl)c1O :: FALSE
CCC(=O)c1c(O)cc(O)cc1O :: FALSE
CCCCCC=CCC=CCCCCCCCC(=O)OCC :: FALSE
CCCSS/C(CCO)=C(\C)N(C=O)Cc1cnc(C)nc1N :: FALSE
CC1=C(C(=O)O)N2C(=O)[C@@H](NC(=O)[C@H](N)c3ccc(O)cc3)[C@H]2SC1 :: FALSE
Clc1ccc2c(c1)CCc1cccnc1C2=C1CCNCC1 :: FALSE
CCCCC(=O)O[C@]1(C(=O)CO)CC[C@H]2[C@@H]3CCC4=CC(=O)CC[C@]4(C)[C@H]3[C@@H](O)C[C@@]21C :: FALSE
CCCOC(C(=O)OC1CCN(C)CC1)(c1ccccc1)c1ccccc1 :: FALSE

----------
test system: ECU; assay: qHTS profiling for inhibitors of Plasmodium falciparum proliferation (AID 504749); note: nearly all actives have a fitted effect of over 60% in size; note: potency is the fitted concentration of half-maximal effect; settings: P. falciparum in erythrocytes, SYBR Green DNA, 72 h; series mostly up to 28.7 µM
Results filed as inconclusive are left out. Calls of active or inactive are those of the source. Calls follow the shape of the dose curve; as a rule, active = well fitted inhibition curve with a large enough effect; inconclusive = small, poorly fitted or top-dose-only effect; inactive = flat fitted curve, though single readings scatter.
measuredProperty: Potency

Nc1ccc(/C=C/c2ccc(N)cc2S(=O)(=O)O)c(S(=O)(=O)O)c1 :: inactive
CN1CCN(CCCN2c3ccccc3Sc3ccc(S(=O)(=O)N(C)C)cc32)CC1 :: 4.47 µM (active)
C[C@]12CCC(=O)C=C1CC[C@H]1[C@@H]3CC[C@](O)(C(=O)CO)[C@@]3(C)C[C@H](O)[C@@]12F :: inactive
NCCCC[C@H](N[C@@H](CCc1ccccc1)C(=O)O)C(=O)N1CCC[C@H]1C(=O)O :: inactive

----------
assay: S16 Schwann cell viability assay (CellTiter-Glo assay) (AID 624031); details: S16 rat Schwann cells viability, 24 h; series mostly up to 57.5 µM; note: nearly all actives have a fitted effect of over 70% in size
Inconclusive results are not listed. Activity calls are given as the source filed them. Calls come from the whole dose curve; as a rule, active = well fitted cell-killing curve with a large enough effect; inconclusive = small, poorly fitted or top-dose-only effect, or effect the other way; inactive = flat fitted curve, though single readings scatter. Numbered stars: 1 amine (or outer) side, 2 acyl side, 3 side chain; on linkers, the order of the positions; unused ones are H or OH. Bridge positions count the residues as written; N and C are the ends. Square brackets hold non-standard residues; d marks the D form. Peptide text beside a SMILES is read from it. I, II: the chains in the order shown. Actinocin(9to1) = Cc1c2oc3c(C)ccc(C(=O)[*:1])c3nc-2c(C(=O)[*:2])c(N)c1=O; NMeV = CN[C@H](C(=O)O)C(C)C; Sar = CNCC(=O)O
Possible outcomes: active, inactive

CCOc1ccc(Cc2nccc3cc(OCC)c(OCC)cc23)cc1OCC :: inactive
OCc1ccccc1O :: inactive
Cc1ccc(C(=O)C(C)CN2CCCCC2)cc1 (stereo not given) :: inactive
O=C(COc1ccc(Cl)cc1)N1CCN(Cc2ccc3c(c2)OCO3)CC1 :: inactive
CCCCOc1cc(C(=O)NCCN(CC)CC)c2ccccc2n1 :: inactive
C[C@H]1C[C@H]2[C@@H]3CCC4=CC(=O)C=C[C@]4(C)[C@@]3(Cl)[C@@H](O)C[C@]2(C)[C@@]1(O)C(=O)CO :: inactive
CCCCC(CC)CN=C(N)NC(N)=NCCCCCCN=C(N)NC(N)=NCC(CC)CCCC (stereo not given) :: active
NC(CS)C(=O)O (stereo not given) :: inactive
Oc1ccc(Cl)c2cccnc12 :: inactive
CN(C)CCCOc1nn(Cc2ccccc2)c2ccccc12 :: inactive
CC(C)COC(=O)c1ccc(N)cc1 :: inactive
CN=C(NC#N)NCCSCc1csc(N=C(N)N)n1 :: inactive
CCn1cc(C(=O)O)c(=O)c2cnc(N3CCCC3)nc21 :: inactive
Cc1cc(=O)n(-c2ccccc2)n1C :: inactive
Cc1cc(O)c(C(C)C)cc1Cl :: inactive
CCN1CCC[C@H]1CNC(=O)c1c(OC)ccc(Br)c1OC :: inactive
CCCCC1=NC2(CCCC2)C(=O)N1Cc1ccc(-c2ccccc2-c2nn[nH]n2)cc1 :: inactive
Nc1cc(Cl)c(NC2=NCCN2)c(Cl)c1 :: inactive
COC(=O)[C@@H]1CC2=CC(=O)CC[C@]2(C)[C@@]23O[C@@H]2C[C@@]2(C)[C@@H](CC[C@@]24CCC(=O)O4)[C@H]13 :: inactive
O=C(O)c1cc2cc(Cc3cccnc3)ccc2o1 :: inactive
Nc1ccc(C(=O)O)cc1 :: inactive
O=c1ccc2ccccc2o1 :: inactive
CCCn1c(=O)[nH]c(=O)c2[nH]cnc21 :: inactive
COc1cc(C(=S)N2CCOCC2)cc(OC)c1OC :: inactive
CN1C(CCl)Nc2cc(Cl)c(S(N)(=O)=O)cc2S1(=O)=O (stereo not given) :: inactive
NC(CO)(CO)CO :: inactive
Cc1c(F)c(N2CCNC(C)C2)cc2c1c(=O)c(C(=O)O)cn2C1CC1 (stereo not given) :: inactive
Oc1ccc(Cl)cc1Sc1cc(Cl)ccc1O :: inactive
CCN(CCCc1ccccc1)CCCc1ccccc1 :: inactive
CCOC(=O)n1ccn(C)c1=S :: inactive
c1ccc(CNCCNCc2ccccc2)cc1 :: inactive
CCN(CC)CCNC(=O)COc1ccc(Cl)cc1 :: inactive
CCCCCCCCCCCCCCNCCO :: inactive
O=C(O)CNC(=O)c1ccccc1 :: inactive
CCCCCCc1ccc(O)cc1O :: inactive
O=C(O)CCCCC(=O)O :: inactive
CN=C(NC#N)Nc1ccc(C2=NNC(=O)CC2C)cc1 (stereo not given) :: inactive
COc1cc(-c2ccc(=O)[nH]n2)ccc1OC(F)F :: inactive
C1CCc2nnnn2CC1 :: inactive
Cc1c2oc3c(C)ccc(C(=O)N[C@@H]4C(=O)N[C@H](C(C)C)C(=O)N5CCC[C@H]5C(=O)N(C)CC(=O)N(C)[C@@H](C(C)C)C(=O)O[C@@H]4C)c3nc-2c(C(=O)N[C@@H]2C(=O)N[C@H](C(C)C)C(=O)N3CCC[C@H]3C(=O)N(C)CC(=O)N(C)[C@@H](C(C)C)C(=O)O[C@@H]2C)c(N)c1=O (I: T[dV]P[Sar][NMeV] / II: T[dV]P[Sar][NMeV]; ester I:1-I:C, II:1-II:C; linker I:N-II:N via Actinocin(9to1)) :: inactive
